Data provenance: patent US12662490B2

target or test system: MAGL (Homo sapiens, UniProt Q99685)
Sequence (Q99685 whole entry, species assumed): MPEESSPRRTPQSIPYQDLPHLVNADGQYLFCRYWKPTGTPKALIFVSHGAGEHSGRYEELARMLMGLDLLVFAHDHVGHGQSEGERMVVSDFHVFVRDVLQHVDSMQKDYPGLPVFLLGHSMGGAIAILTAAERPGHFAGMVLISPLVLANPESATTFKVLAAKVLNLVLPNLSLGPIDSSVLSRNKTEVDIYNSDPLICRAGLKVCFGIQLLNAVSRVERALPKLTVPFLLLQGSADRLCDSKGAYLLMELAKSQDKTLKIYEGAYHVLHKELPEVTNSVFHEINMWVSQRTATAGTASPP
assay summary: 2-AG assay (MAGL inhibitory activity; hydrolysis of 2-arachidonoylglycerol to arachidonic acid followed by mass spectrometry)
Assay type: biochemical
cond: 15 min preincubation at RT, 8 μM 2-arachidonoylglycerol, 30 min at RT, RapidFire MS readout
readout kind: pIC50
One number for each entry, as −log10 of the molar value.

Record excerpt, results attached:
COc1cccc(C(=O)N2CCN3C[C@@H](c4ccc(F)c(Cl)c4)OC[C@]3(C)C2)c1Cl (stereo in doubt) = 6.48
O=C(c1cccc(-c2c[nH]nc2F)c1Cl)N1CCN2C[C@@](O)(c3ccc(C(F)(F)F)nc3)OC[C@@H]2C1 = 7.86
COc1ccc(F)c(C(=O)N2CCN3C[C@H](c4ccc(F)c(Cl)c4)OC[C@@H]3C2)c1Cl = 5.83

# per-item lookup of pIC50; items listed below
1. O=C(c1cccc(-c2ccnnc2)c1Cl)N1CCN2C[C@@H](c3ccc(F)c(Cl)c3)OC[C@@H]2C1
2. N#Cc1cc(-c2cc(F)cc(C(=O)N3CCN4C[C@H](c5c[nH]c(C(F)(F)F)cc5=O)OC[C@@H]4C3)c2Cl)c[nH]1
3. COc1cccc(C(=O)N2CCN3C[C@@H](c4ccc(C(F)(F)F)nn4)OC[C@@H]3C2)c1Cl
4. COc1ccc(C(=O)N2CCN3C[C@@H](c4ccc(F)c(Cl)c4)OC[C@@H]3C2)c(Cl)c1OC
5. O=C(c1cc(F)cc(-c2c[nH]nc2F)c1Cl)N1CCN2C[C@@H](c3cc(Cl)c[nH]c3=O)OC[C@@H]2C1
6. COc1cccc(C(=O)N2CCN3C[C@@](O)(c4ccc(Cl)c(F)c4)OC[C@@H]3C2)c1Cl
7. COc1cccc(C(=O)N2CCN3CC(c4ccc(C(F)F)cc4)OCC3C2)c1Cl (mixture of isomers)
8. O=C(c1cccc(-c2ccccc2)c1Cl)N1CCN2C[C@@H](c3ccc(F)c(Cl)c3)OC[C@@H]2C1

6.69
6.24
5.69
6.52
6.85
7.37
6.84
7.79

State its pIC50 for this compound: Cc1cc(-c2cccc(C(=O)N3CCN4C[C@@H](c5ccc(F)c(Cl)c5)OC[C@@H]4C3)c2Cl)cc(=O)[nH]1 7.25
